# MIC measurements, system: Escherichia coli ESBL 63103
The response must be a number in µM with no trailing unit.

[
  {
    "structureSmiles": "CC[C@H](C)[C@H](NC(=O)[C@H](Cc1c[nH]c2ccccc12)NC(=O)[C@H](CCCCN)NC(=O)[C@H](Cc1c[nH]c2ccccc12)NC(=O)[C@H](Cc1c[nH]c2ccccc12)NC(=O)[C@H](CCCNC(=N)N)NC(=O)[C@@H](N)CCCCN)C(=O)N[C@@H](CCCNC(=N)N)C(=O)N[C@@H](Cc1c[nH]c2ccccc12)C(=O)O",
    "propertyLabel": "MIC",
    "result": 1.5
  }
]

Quote MIC reported for CC(C)C[C@H](NC(=O)[C@H](Cc1c[nH]c2ccccc12)NC(=O)[C@H](Cc1c[nH]c2ccccc12)NC(=O)[C@H](CCCCN)NC(=O)[C@H](Cc1c[nH]c2ccccc12)NC(=O)[C@H](CCCN=C(N)N)NC(=O)[C@H](CCCN=C(N)N)NC(=O)[C@H](Cc1c[nH]c2ccccc12)NC(=O)[C@@H](N)CCCN=C(N)N)C(=O)O please.
2.65

###

- System: Bacillus subtilis ATCC 6633
- assaySummary: ≥ marks a high value that may be exact or a test limit, other limits are often not marked, values filed in µg/mL are converted to µM
Let's look at some compounds and their measured MIC.

# annotated cases, reported MIC shown
[
  {
    "structureSmiles": "CC(C)C[C@H](NC(=O)[C@H](Cc1c[nH]c2ccccc12)NC(=O)[C@H](CCCCN)NC(=O)[C@H](Cc1ccccc1)NC(=O)[C@H](C)NC(=O)[C@H](Cc1c[nH]c2ccccc12)NC(=O)[C@H](CCCCN)NC(=O)[C@H](C)NC(=O)[C@@H](N)Cc1ccccc1)C(=O)N[C@@H](CCCCN)C(=O)N[C@@H](CCCCN)C(N)=O",
    "MIC": "4.34 µM"
  },
  {
    "structureSmiles": "CC[C@H](C)[C@H](NC(=O)[C@H](CCCCN)NC(=O)[C@@H]1CCCN1C(=O)[C@H](CC(C)C)NC(=O)[C@@H](N)Cc1ccccc1)C(=O)N[C@@H](CC(C)C)C(=O)N[C@@H](CCCN=C(N)N)C(=O)N[C@@H](CCCCN)C(=O)N[C@H](C(=O)N[C@H](C(=O)N[C@@H](CCCN=C(N)N)C(=O)N[C@@H](C)C(=O)N[C@@H](CC(C)C)C(N)=O)C(C)C)[C@@H](C)CC",
    "MIC": "≥ 47.9 µM"
  }
]

Name the recorded MIC of the item CC(C)C[C@H](NC(=O)[C@H](Cc1c[nH]c2ccccc12)NC(=O)[C@H](CCCCN)NC(=O)[C@H](CCCCN)NC(=O)[C@H](CC(C)C)NC(=O)[C@H](Cc1c[nH]c2ccccc12)NC(=O)[C@H](CCCCN)NC(=O)[C@@H](N)CC(C)C)C(=O)N[C@@H](CCCCN)C(N)=O in your answer.
≥ 32.2 µM

###

Values of MIC reported for Enterococcus faecium appear below.
Give the value in µM but do not write µM after it.

[
  {
    "compound": "CC(C)C[C@H](NC(=O)[C@H](CS)NC(=O)[C@H](Cc1cnc[nH]1)NC(=O)[C@H](C)NC(=O)[C@H](C)N)C(=O)N[C@@H](C)C(=O)N[C@@H](CCCCN)C(=O)N[C@@H](CCCN=C(N)N)C(=O)N[C@@H](CCCCN)C(=O)N[C@@H](CCCCN)C(N)=O [AAHCLAKRKK]",
    "MIC [µM]": 30
  },
  {
    "compound": "CC(C)C[C@H](NC(=O)[C@H](Cc1ccccc1)NC(=O)[C@H](CC(C)C)NC(=O)[C@H](CS)NC(=O)[C@H](Cc1cnc[nH]1)NC(=O)[C@@H](NC(=O)[C@H](C)N)[C@@H](C)O)C(=O)N[C@@H](CCCCN)C(=O)N[C@@H](CCCCN)C(=O)N[C@@H](CCCN=C(N)N)C(N)=O [ATHCLFLKKR]",
    "MIC [µM]": 30
  }
]

Next compound, please.
For Enterococcus faecium, give MIC of the listed compound: CC[C@H](C)[C@H](NC(=O)[C@H](CCCN=C(N)N)NC(=O)[C@H](CCCCN)NC(=O)[C@@H](NC(=O)[C@@H](N)Cc1ccccc1)[C@@H](C)CC)C(=O)N[C@@H](C)C(=O)N[C@@H](CCCN=C(N)N)C(=O)N[C@@H](CC(C)C)C(=O)N[C@@H](CC(C)C)C(=O)N[C@@H](CCCN=C(N)N)C(=O)N[C@@H](CCCCN)C(=O)N[C@H](C(=O)N[C@@H](Cc1ccccc1)C(N)=O)[C@@H](C)CC [FIKRIARLLRKIF]
2.99

###

Here's a batch of compounds along with measured MIC for Bacillus megaterium Bm11.
Output spec: scalar in µM, unitless text.

[
  {
    "structureSmiles": "CC[C@H](C)[C@H](NC(=O)[C@H](C)NC(=O)[C@H](CO)NC(=O)[C@H](CC(C)C)NC(=O)[C@@H](NC(=O)[C@H](CCCN=C(N)N)NC(=O)CNC(=O)[C@@H](NC(=O)[C@H](CC(C)C)NC(=O)[C@@H]1CCCN1C(=O)[C@H](CC(C)C)NC(=O)[C@@H](N)Cc1ccccc1)[C@@H](C)CC)C(C)C)C(=O)N[C@@H](CC(C)C)C(N)=O",
    "systemTested": "Bacillus megaterium Bm11",
    "MIC (µM)": 2.5
  },
  {
    "structureSmiles": "CC[C@H](C)[C@H](NC(=O)[C@H](CCCCN)NC(=O)CNC(=O)[C@H](CC(C)C)NC(=O)[C@H](Cc1ccccc1)NC(=O)[C@H](CCCCN)NC(=O)[C@H](CO)NC(=O)[C@H](Cc1ccccc1)NC(=O)[C@H](Cc1c[nH]c2ccccc12)NC(=O)[C@H](CCC(N)=O)NC(=O)[C@@H](NC(=O)[C@@H](N)Cc1ccccc1)C(C)C)C(=O)N[C@@H](CC(C)C)C(N)=O",
    "systemTested": "Bacillus megaterium Bm11",
    "MIC (µM)": 3
  },
  {
    "structureSmiles": "CC[C@H](C)[C@H](NC(=O)CNC(=O)[C@H](CO)NC(=O)[C@H](CC(C)C)NC(=O)[C@@H](NC(=O)[C@H](CCCN=C(N)N)NC(=O)CNC(=O)[C@@H](NC(=O)[C@H](CC(C)C)NC(=O)[C@@H]1CCCN1C(=O)[C@H](C)NC(=O)[C@@H](N)Cc1ccccc1)[C@@H](C)CC)C(C)C)C(=O)N[C@@H](CC(C)C)C(N)=O",
    "systemTested": "Bacillus megaterium Bm11",
    "MIC (µM)": 5
  }
]

Dear colleague, please send me the reported MIC for CC[C@H](C)[C@H](NC(=O)[C@H](CCCCN)NC(=O)[C@H](CCCCN)NC(=O)[C@H](CC(C)C)NC(=O)[C@H](CC(C)C)NC(=O)CN)C(=O)N[C@@H](C)C(=O)N[C@@H](CCCCN)C(=O)N[C@@H](CCCCN)C(=O)N[C@@H](C)C(=O)N[C@@H](CCCCN)C(=O)N[C@@H](CCCCN)C(=O)N[C@@H](C)C(=O)N[C@@H](CC(C)C)C(=O)N[C@@H](CCCCN)C(=O)N[C@@H](CCCCN)C(=O)N[C@@H](CC(C)C)C(=O)NCC(=O)N[C@@H](Cc1ccc(O)cc1)C(N)=O when you can.
1

###

Here we list compounds with their recorded MIC when tested on Staphylococcus aureus USA 300.
Just the number please, in µM, no unit attached.

[
  {
    "structureSmiles": "CC(C)[C@H](NC(=O)[C@H](Cc1c[nH]c2ccccc12)NC(=O)[C@H](CCCN=C(N)N)NC(=O)[C@H](Cc1c[nH]c2ccccc12)NC(=O)[C@H](Cc1c[nH]c2ccccc12)NC(=O)[C@H](CCCN=C(N)N)NC(=O)[C@@H](N)CCCN=C(N)N)C(=O)N[C@H](C(=O)N[C@@H](Cc1c[nH]c2ccccc12)C(N)=O)C(C)C",
    "systemTested": "Staphylococcus aureus USA 300",
    "MIC [µM]": 20
  }
]

In the following, a different compound is considered.
Check Staphylococcus aureus USA 300 data and give MIC for CC(C)[C@H](NC(=O)[C@H](Cc1c[nH]c2ccccc12)NC(=O)[C@H](Cc1c[nH]c2ccccc12)NC(=O)[C@H](Cc1c[nH]c2ccccc12)NC(=O)[C@H](Cc1c[nH]c2ccccc12)NC(=O)[C@H](CCCN=C(N)N)NC(=O)[C@H](CCCN=C(N)N)NC(=O)[C@@H](N)CCCN=C(N)N)C(N)=O .
2.83

###

Reported values: MIC for Micrococcus luteus A270, one per item.
# number only, unit µM dropped from output

[
  {
    "molecule": "CC(C)C[C@H](NC(=O)[C@H](C)NC(=O)CNC(=O)[C@H](CC(C)C)NC(=O)[C@@H](N)CCCCN)C(=O)N[C@@H](Cc1c[nH]c2ccccc12)C(=O)N[C@@H](CC(N)=O)C(=O)N[C@H](C(=O)N[C@@H](C)C(=O)N[C@@H](CCCCN)C(=O)N[C@@H](CO)C(=O)N[C@@H](CCCCN)C(=O)N[C@@H](Cc1ccccc1)C(N)=O)C(C)C [KLGALWNVAKSKF]",
    "resultUnits": "µM",
    "MIC": 25
  },
  {
    "molecule": "CC[C@H](C)[C@H](NC(=O)[C@H](CC(C)C)NC(=O)[C@H](CO)NC(=O)[C@H](CC(C)C)NC(=O)[C@H](CC(C)C)NC(=O)[C@@H](N)CCCN=C(N)N)C(=O)N[C@@H](CCCN=C(N)N)C(=O)N[C@@H](CCCCN)C(=O)N[C@@H](CC(C)C)C(=O)N[C@H](C(=O)N[C@H](C(N)=O)[C@@H](C)O)[C@@H](C)CC [RLLSLIRKLIT]",
    "resultUnits": "µM",
    "MIC": 0.5
  }
]

Here's the next entry for you.
Please list MIC recorded for the molecule CC(C)C[C@H](NC(=O)[C@H](C)NC(=O)CNC(=O)[C@H](CC(C)C)NC(=O)[C@@H](N)Cc1ccccc1)C(=O)N[C@@H](Cc1c[nH]c2ccccc12)C(=O)N[C@@H](CCCCN)C(=O)N[C@H](C(=O)N[C@@H](C)C(=O)N[C@@H](CCCCN)C(=O)N[C@@H](CCCCN)C(=O)N[C@H](C(=O)N[C@@H](Cc1ccccc1)C(N)=O)C(C)C)C(C)C [FLGALWKVAKKVF]
0.8
